- experimentalTarget: recombinant human PDE5 (Homo sapiens)
- protocolNotes: Inhibitory effect on cGMP-PDE (PDE5 IC50 determination)
- testConditions: in vitro
propertyLabel: IC50 (nM)

[a] CC(=O)n1c2c(c3ccccc31)C[C@@H]1C(=O)N(C)CC(=O)N1[C@@H]2c1ccc2c(c1)OCO2 [Example 4]
[b] CN1CC(=O)N2[C@H](c3ccc4c(c3)OCO4)c3c(c4ccccc4n3Cc3ccccc3)C[C@H]2C1=O [Example 3]
[c] CN1CC(=O)N2[C@H](c3ccc4c(c3)OCO4)c3c(c4ccccc4n3C)C[C@H]2C1=O [Example 1]
[d] CN1CC(=O)N2[C@H](c3ccc4c(c3)OCO4)c3c(c4ccccc4n3C)C[C@@H]2C1=O [Example 2]
[ask] In ascending order of recorded IC50, list the molecules from the set above. Ranked list of labels, please, in the requested order.
[reply] a, c, b, d
